# system tested: SSTR-3 (Homo sapiens, UniProt P32745)
# Construct: expressed in transfected cells
# Sequence (P32745 whole entry): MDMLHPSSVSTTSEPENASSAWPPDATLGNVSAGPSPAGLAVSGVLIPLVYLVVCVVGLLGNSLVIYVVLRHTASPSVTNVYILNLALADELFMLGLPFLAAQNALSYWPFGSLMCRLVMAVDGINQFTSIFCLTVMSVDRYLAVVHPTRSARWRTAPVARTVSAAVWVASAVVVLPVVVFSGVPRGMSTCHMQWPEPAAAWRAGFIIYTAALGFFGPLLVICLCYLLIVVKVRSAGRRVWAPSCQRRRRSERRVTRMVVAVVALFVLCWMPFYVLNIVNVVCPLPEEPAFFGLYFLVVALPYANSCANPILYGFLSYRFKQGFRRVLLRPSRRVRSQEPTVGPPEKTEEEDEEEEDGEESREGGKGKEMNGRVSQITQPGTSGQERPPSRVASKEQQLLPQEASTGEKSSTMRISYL
# test summary: Radioligand binding screen against somatostatin subtype SSTR-3
# experimental context: Table 8; shown where Ki could not be determined (NoModel); read-out: IC50 SSTR3 (in parentheses)
Each record here notes measured IC50.

{"compound": "CS[C@@H]1O[C@H](COCc2ccc(Cl)cc2)[C@@H](O)[C@@H](OCc2ccc3ccccc3c2)[C@H]1NC(=O)CCN", "IC50 (µM)": 0.0008}
{"compound": "COC[C@H]1O[C@@H](OCc2ccc3ccccc3c2)[C@H](NC(=O)CCCN)[C@@H](OCc2ccc(Cl)cc2)[C@@H]1O", "IC50 (µM)": 0.429}
{"compound": "COC[C@H]1OC(OCc2ccc3ccccc3c2)[C@H](NC(=O)CCN)[C@H](OCc2ccccc2)[C@@H]1O (stereo partly shown)", "IC50 (µM)": 0.206}
{"compound": "COC[C@H]1OC(OCc2ccc(Cl)cc2)[C@H](NC(=O)CCN)[C@H](OCc2ccc3ccccc3c2)[C@@H]1O (stereo partly shown)", "IC50 (µM)": 0.127}

----------
# system tested: Human SST5 somatostatin receptor (SSTR5) (Homo sapiens)
# Construct: expressed in transfected cells; host or cells: HEK-293 EBNA
# Sequence (P35346 whole entry): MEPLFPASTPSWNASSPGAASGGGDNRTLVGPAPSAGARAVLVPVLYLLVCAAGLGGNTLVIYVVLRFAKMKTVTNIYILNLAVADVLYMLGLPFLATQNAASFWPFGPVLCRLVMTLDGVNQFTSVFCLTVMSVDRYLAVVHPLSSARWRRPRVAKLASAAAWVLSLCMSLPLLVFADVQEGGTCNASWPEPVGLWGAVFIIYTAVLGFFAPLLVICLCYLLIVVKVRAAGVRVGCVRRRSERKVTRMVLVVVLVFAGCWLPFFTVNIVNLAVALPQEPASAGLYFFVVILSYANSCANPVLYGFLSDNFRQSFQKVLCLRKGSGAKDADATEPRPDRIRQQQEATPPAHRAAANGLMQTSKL
# test summary: Filter plate assay for SST5 receptor, displacement of [125I]SST-14
# Type: binding
# experimental context: 10 uM
# Description: Receptor membrane preparations containing the desired cloned receptor (for example cloned human somatostatin receptor subtype 5, SSTR5) and radio-labeled ligand (for example 3-[^125I]iodotyrosyl^11 Somatostatin-14)) were diluted at the concentration required for testing and according to the specific parameters associated with the selected receptor-ligand combination, including receptor Bmax, ligand Kd and any other parameters necessary to optimize the experimental conditions. […]
measurement label: SSTR5 Inhib 10 uM % (inhibition of binding of SST-14 to SSTR5)

{"molecule": "CO[C@H]1[C@H](O)[C@@H](COCc2ccc(Cl)cc2)OC(OCc2ccc3ccccc3c2)[C@@H]1NC(=O)CCCN (some centres unmarked)", "recorded result": "78%"}
{"molecule": "COC[C@H]1OC(OCc2ccc(-c3ccccc3)cc2)[C@H](NC(=O)CCCN)[C@@H](OCc2ccc(-c3ccccc3)cc2)[C@@H]1O (some centres unmarked) [Compound 31]", "recorded result": "96%"}
{"molecule": "CSC1O[C@H](COCc2ccccc2)[C@@H](O)[C@@H](OCc2ccc3ccccc3c2)[C@H]1NC(=O)CCCNC(=N)N (some centres unmarked)", "recorded result": "86%"}
{"molecule": "COC[C@H]1OC(OCc2ccc3ccccc3c2)[C@H](NC(=O)CCCNC(=N)N)[C@@H](OCc2ccc3ccccc3c2)[C@@H]1O (some centres unmarked) [Compound 104]", "recorded result": "84%"}
{"molecule": "COC[C@H]1OC(OCc2ccc3ccccc3c2)[C@H](NC(=O)CCCN)[C@@H](OCc2cccc(O)c2)[C@@H]1O (some centres unmarked) [Compound 146]", "recorded result": "77%"}
{"molecule": "CSC1O[C@H](COCc2ccc(Cl)cc2)[C@@H](O)[C@@H](OCc2ccccc2)[C@H]1NC(=O)CCNC(=N)N (some centres unmarked)", "recorded result": "78%"}
{"molecule": "COC[C@H]1OC(OCc2ccc(Cl)cc2)[C@H](NC(=O)CCCNC(=N)N)[C@@H](OCc2ccc3ccccc3c2)[C@@H]1O (some centres unmarked)", "recorded result": "74%"}
{"molecule": "COC[C@H]1OC(OCc2ccc(Cl)cc2)[C@H](NC(=O)CCCN)[C@H](OCc2ccc(Cl)cc2)[C@@H]1O (some centres unmarked)", "recorded result": "94%"}
{"molecule": "COC[C@H]1OC(OCc2ccc(Cl)cc2)[C@H](NC(=O)CCCN)[C@@H](OCc2ccc(Cl)cc2)[C@@H]1O (some centres unmarked)", "recorded result": "95%"}
{"molecule": "COC[C@H]1OC(OCc2ccc(Cl)cc2)[C@H](NC(=O)CCCN)[C@@H](OCc2ccc(-c3ccccc3)cc2)[C@@H]1O (some centres unmarked) [Compound 30]", "recorded result": "96%"}
{"molecule": "COC[C@H]1OC(OCc2ccccc2)[C@H](NC(=O)CCCNC(=N)N)[C@H](OCc2ccc3ccccc3c2)[C@@H]1O (some centres unmarked)", "recorded result": "84%"}
{"molecule": "COC[C@H]1OC(OCc2ccc(Cl)cc2)[C@H](NC(=O)CCCN)[C@H](OCc2ccccc2)[C@@H]1O (some centres unmarked)", "recorded result": "82%"}
{"molecule": "COC[C@H]1OC(OCc2ccc3ccccc3c2)[C@H](NC(=O)CCN)[C@H](OCc2ccc(-c3ccccc3)cc2)[C@@H]1O (some centres unmarked)", "recorded result": "96%"}
{"molecule": "CSC1O[C@H](COCc2ccc(Cl)cc2)[C@@H](O)[C@@H](OCc2ccc3ccccc3c2)[C@H]1NC(=O)CCNC(=N)N (some centres unmarked)", "recorded result": "80%"}
{"molecule": "COC[C@H]1OC(OCc2ccc3ccccc3c2)[C@H](NC(=O)CCNC(=N)N)[C@@H](OCc2ccc3ccccc3c2)[C@@H]1O (some centres unmarked)", "recorded result": "76%"}
{"molecule": "COC[C@H]1OC(OCc2ccc(-c3ccccc3)cc2)[C@H](NC(=O)CCCNC(=N)N)[C@@H](OCc2ccc(Cl)cc2)[C@@H]1O (some centres unmarked) [Compound 120]", "recorded result": "81%"}
{"molecule": "COC[C@H]1OC(OCc2ccc3ccccc3c2)[C@H](NC(=O)CCCN)[C@@H](OCc2ccc(-c3ccccc3)cc2)[C@@H]1O (some centres unmarked) [Compound 29]", "recorded result": "96%"}
{"molecule": "COC1C(O)C(COCc2ccc(-c3ccccc3)cc2)OC(OCc2ccccc2)C1NC(=O)CCCNC(=N)N (centres unmarked)", "recorded result": "72%"}
{"molecule": "COC[C@H]1OC(OCc2ccc3ccccc3c2)[C@H](NC(=O)CCCNC(=N)N)[C@H](OCc2ccc(Cl)cc2)[C@@H]1O (some centres unmarked)", "recorded result": "98%"}
{"molecule": "COC[C@H]1OC(OCc2ccccc2)[C@H](NC(=O)CNC(=N)N)[C@H](OCc2ccc3ccccc3c2)[C@@H]1O (some centres unmarked)", "recorded result": "74%"}
{"molecule": "COC[C@H]1OC(OCc2ccc3ccccc3c2)[C@H](NC(=O)CNC(=N)N)[C@H](OCc2ccc(Cl)cc2)[C@@H]1O (some centres unmarked)", "recorded result": "80%"}
{"molecule": "COC[C@H]1OC(OCCc2ccccc2)[C@H](NC(=O)CCN)[C@H](OCc2ccccc2)[C@@H]1O (some centres unmarked)", "recorded result": "83%"}
{"molecule": "COC[C@H]1OC(OCc2ccc3ccccc3c2)[C@H](NC(=O)CCCN)[C@@H](OCc2ccc(-c3ccccc3)cc2)[C@@H]1O (some centres unmarked) [Compound 25]", "recorded result": "96%"}
{"molecule": "COC[C@H]1OC(OCc2ccc3ccccc3c2)[C@H](NC(=O)CCCNC(=N)N)[C@H](OCc2ccc3ccccc3c2)[C@@H]1O (some centres unmarked)", "recorded result": "90%"}
{"molecule": "COC[C@H]1OC(OCc2ccccc2)[C@H](NC(=O)CCCN)[C@H](OCc2ccccc2)[C@@H]1O (some centres unmarked)", "recorded result": "76%"}
{"molecule": "COC1C(O)C(COCc2ccc3ccccc3c2)OC(OCc2ccc(Cl)cc2)C1NC(=O)C1CCCN1 (centres unmarked)", "recorded result": "92%"}

Hey, just so you know, these numbers are from patent US20080280837A1.
